- ASSAYED_TARGET: K-Ras G12V (Homo sapiens, UniProt P01116, G12V)
- Sequence (P01116 1-169 isoform P01116-2 G12V): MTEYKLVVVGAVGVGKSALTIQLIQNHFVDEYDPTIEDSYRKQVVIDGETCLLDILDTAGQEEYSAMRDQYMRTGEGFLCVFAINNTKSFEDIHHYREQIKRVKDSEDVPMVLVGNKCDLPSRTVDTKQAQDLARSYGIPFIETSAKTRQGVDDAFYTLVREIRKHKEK
- ASSAY_EXPLANATION: SOS1 catalyzed nucleotide exchange assay (GDP form K-Ras), K-Ras G12V
- CONDITION_INFO: read-out: K-Ras G12V GDP Biochemical Activity (IC50)
ENDPOINT_LABEL: IC50 (nM)
Give bare numbers, in nM.

INSERT INTO results (compound, endpoint_label, value_observed) VALUES
  ('C#Cc1c(F)ccc2cc(O)cc(-c3ncc4c(N5CCOC[C@@H](O)C5)nc(OC[C@@]56CCCN5C[C@H](F)C6)nc4c3F)c12 (single isomer, unassigned) [Compound 46B]', 'IC50', 1.26),
  ('C#Cc1c(F)ccc2cc(O)cc(-c3nc(SC)c4c(N5CCCOCC5)nc(OC[C@@]56CCCN5C[C@H](F)C6)nc4c3F)c12 [Compound 47, trifluoroacetic acid]', 'IC50', 4.38);

Could you now look at the following compound, please?
Give recorded IC50. C#Cc1c(F)ccc2cc(O)cc(-c3ccc4c(N5CCCOCC5)nc(OCC5(CN6CCOCC6)CC5)nc4c3F)c12 [Compound 20, trifluoroacetic acid]
8.81
